target desc: USP7 (Homo sapiens, UniProt Q93009);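 note: fluorescence intensity readout of USP7 enzymatic activity, reaction incubated 90 min at room temperature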
Sequence (Q93009 whole entry): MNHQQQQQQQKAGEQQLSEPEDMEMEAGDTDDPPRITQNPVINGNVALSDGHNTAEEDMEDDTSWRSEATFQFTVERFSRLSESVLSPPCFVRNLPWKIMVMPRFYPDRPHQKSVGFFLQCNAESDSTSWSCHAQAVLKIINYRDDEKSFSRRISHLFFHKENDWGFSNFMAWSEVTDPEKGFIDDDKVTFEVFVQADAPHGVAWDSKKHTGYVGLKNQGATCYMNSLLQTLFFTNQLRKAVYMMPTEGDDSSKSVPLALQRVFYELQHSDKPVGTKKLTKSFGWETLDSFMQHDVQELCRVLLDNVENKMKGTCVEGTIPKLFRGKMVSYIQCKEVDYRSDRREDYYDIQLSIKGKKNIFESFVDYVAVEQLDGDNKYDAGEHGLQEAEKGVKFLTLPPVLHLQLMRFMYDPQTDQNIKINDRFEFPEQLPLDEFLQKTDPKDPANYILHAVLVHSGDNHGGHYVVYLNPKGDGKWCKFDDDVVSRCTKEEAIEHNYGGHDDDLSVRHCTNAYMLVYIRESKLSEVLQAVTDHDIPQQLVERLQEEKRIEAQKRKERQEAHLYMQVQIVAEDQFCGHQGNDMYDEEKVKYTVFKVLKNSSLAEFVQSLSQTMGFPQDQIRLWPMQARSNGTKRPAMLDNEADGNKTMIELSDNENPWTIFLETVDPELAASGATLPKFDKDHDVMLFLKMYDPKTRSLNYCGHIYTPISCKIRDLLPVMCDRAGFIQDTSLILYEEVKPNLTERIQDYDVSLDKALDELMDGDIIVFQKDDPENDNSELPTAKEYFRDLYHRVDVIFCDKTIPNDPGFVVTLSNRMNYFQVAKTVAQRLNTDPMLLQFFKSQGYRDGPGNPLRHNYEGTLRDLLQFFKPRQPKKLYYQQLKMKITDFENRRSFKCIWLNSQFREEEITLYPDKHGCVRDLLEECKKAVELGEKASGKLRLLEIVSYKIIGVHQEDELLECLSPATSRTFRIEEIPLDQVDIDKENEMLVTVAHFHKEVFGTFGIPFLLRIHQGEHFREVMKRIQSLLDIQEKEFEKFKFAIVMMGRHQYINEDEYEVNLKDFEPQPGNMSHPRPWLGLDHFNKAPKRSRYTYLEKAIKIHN
readout name: IC50

Previously resolved entries follow.
{"molecule": "CN1C[C@@H](N2CCCc3cc(C#N)cc(-c4ccnc5cc(Cn6c(=O)ccn(C)c6=O)sc45)c32)CC1(C)C [Example 123]", "IC50": "< 10 nM"}
{"molecule": "O=C1CCC(=O)N1Cc1cc2nccc(-c3cc(Cl)cc4c3N(C3CNC3)CCC4)c2s1 [Example 1]", "IC50": "10 to 100 nM"}

Each molecule below has a recorded value; state its IC50.
1. CC1(C)CC(N2CCOc3cc(C#N)cc(-c4ccnc5cc(Cn6c(=O)ccn(CC(F)(F)F)c6=O)sc45)c32)CN1 (single isomer, unassigned) [Example 133a]
2. O=c1cc2n(c(=O)n1Cc1cc3nccc(-c4cc(Cl)cc5c4N([C@H]4CCNC4)CCC5)c3s1)CCC2 [Example 106]
3. CC1(c2cnn(Cc3cc4nccc(-c5cc(C#N)cc6c5N([C@@H]5CN[C@@H](CO)C5)C[C@H]5C[C@@H]65)c4s3)c(=O)c2)CC1 (single isomer, unassigned) [Example 195a]
4. CC(C)(C)c1cnn(Cc2cc3nccc(-c4cc(C#N)cc5c4N([C@@H]4CN[C@@](C)(CO)C4)CCO5)c3s2)c(=O)c1 [Example 221]
5. O=C1CCC(=O)N1Cc1cc2ncnc(-c3cc(Cl)cc4c3N(C3CNC5(CCC5)C3)CCC4)c2s1 (single isomer, unassigned) [Example 161a]
6. CC(C)(C)c1cnn(Cc2cc3nccc(-c4cc(Cl)cc5c4N(C4CNC(CO)(CO)C4)CCO5)c3s2)c(=O)c1 (stereo in doubt) [Example 213b]

Ans:
1: < 10 nM; 2: < 10 nM; 3: < 10 nM; 4: < 10 nM; 5: < 10 nM; 6: < 10 nM

I'm hoping you can list IC50 for every molecule here, please.
1. CC(F)(F)Cn1ccc(=O)n(Cc2cc3nccc(-c4cc(C#N)cc5c4N([C@H]4CCNC4)CCC5)c3s2)c1=O [Example 89]
2. O=C1CCC(=O)N1Cc1cc2nccc(-c3cc(Cl)cc4c3N([C@@H]3CNC[C@H]3F)CCC4)c2s1 (single isomer, unassigned) [Example 96b]

Ans:
< 10 nM
10 to 100 nM

Record IC50 for all entries; do not skip any.
1. N#Cc1cc2c(c(-c3ccnc4cc(CN5C(=O)C6CC6C5=O)sc34)c1)N([C@@H]1CNC3(CCCC3)C1)CCC2 (stereo partly drawn) [Example 178b]
2. O=C1CCC(=O)N1Cc1cc2nccc(-c3cc(Cl)cc4c3N([C@@H]3CNC5(CCC5)C3)CCC4)c2s1 (single isomer, unassigned) [Example 139b]
3. C[C@H]1CCc2cc(Cl)cc(-c3ccnc4cc(CN5C(=O)CCC5=O)sc34)c2N1[C@H]1CCNC1 (single isomer, unassigned) [Example 44b]
4. O=C1C2CC2C(=O)N1Cc1cc2nccc(-c3cc(Cl)cc4c3N([C@@H]3CNC5(CCC5)C3)CCC4)c2s1 (stereo partly drawn) [Example 145]
5. N#Cc1cc(-c2ccnc3cc(Cn4c(=O)ccn(CC(F)F)c4=O)sc23)c2c(c1)[C@@H]1C[C@@H]1CN2[C@@H]1CCNC1 [Example 117b]
6. CC(C)(C)c1cnn(Cc2cc3nccc(-c4cc(Cl)cc5c4N(C4CNC(CO)(CO)C4)CCO5)c3s2)c(=O)c1 (stereo in doubt) [Example 213a]
7. O=C1CCC(=O)N1Cc1cc2nccc(-c3cc(Cl)cc4c3N([C@H]3CNC5(CCC5)C3)C[C@@H]3C[C@H]43)c2s1 [Example 165b]
8. O=C1CCC(=O)N1Cc1cc2nccc(-c3cc(Cl)cc4c3C3(CCC4)CNCCO3)c2s1 (single isomer, unassigned) [Example 229b]

Ans:
["< 10 nM", "< 10 nM", "101 to 1000 nM", "< 10 nM", "10 to 100 nM", "10 to 100 nM", "101 to 1000 nM", "> 1000 nM"]
